IC50 at 48 h: recorded values
- experiment: WST-1 assay, cytotoxicity in normal breast epithelial cell line (non-tumorigenic)
- Type: cell-based
- stated-conditions: human; non-tumorigenic MCF-10A cells; read-out: estimated IC50 (cytotoxicity)
- Description: The water-soluble tetrazolium salt (WST-1) assay was performed to assess the effects of the compounds on cell proliferation and cytotoxicity. […] A Synergy 2 microplate reader (BioTek Instruments, Inc., VT, United States) was used to measure the absorbance at 450 nm. The relative absorbance was compared with the control treatment to determine the relative cell number. […]
Note: unit µM is implicit; provide only the numeric part.

Previously resolved entries follow.
>>> data_value("O=C(Nc1ccc(C(=O)Nc2ccc(C(=O)Nc3cc(S(=O)(=O)O)cc4cc(S(=O)(=O)O)cc(S(=O)(=O)O)c34)cc2)cc1)Nc1ccc(C(=O)Nc2ccc(C(=O)Nc3cc(S(=O)(=O)O)cc4cc(S(=O)(=O)O)cc(S(=O)(=O)O)c34)cc2)cc1")
653
>>> data_value("Cc1ccc(C(=O)Nc2ccc(S(=O)(=O)O)c3cc(S(=O)(=O)O)cc(S(=O)(=O)O)c23)cc1NC(=O)c1cccc(NC(=O)Nc2cccc(C(=O)Nc3cc(C(=O)Nc4ccc(S(=O)(=O)O)c5cc(S(=O)(=O)O)cc(S(=O)(=O)O)c45)ccc3C)c2)c1")
222
>>> data_value("O=C(Nc1ccc(C(=O)Nc2cc(S(=O)(=O)[O-])cc3cc(S(=O)(=O)[O-])cc(S(=O)(=O)[O-])c23)cc1)Nc1ccc(C(=O)Nc2cc(S(=O)(=O)[O-])cc3cc(S(=O)(=O)[O-])cc(S(=O)(=O)[O-])c23)cc1.[Na+].[Na+].[Na+].[Na+].[Na+].[Na+]")
221

Give the reported value of IC50 at 48 h for this record: "O=C(Nc1ccc(C(=O)Nc2cc(S(=O)(=O)O)cc3cc(S(=O)(=O)O)cc(S(=O)(=O)O)c23)s1)Nc1ccc(C(=O)Nc2cc(S(=O)(=O)O)cc3cc(S(=O)(=O)O)cc(S(=O)(=O)O)c23)s1" 628

----------
- measurement-target: FGF1 (Homo sapiens, UniProt P05230)
- Sequence (P05230 whole entry): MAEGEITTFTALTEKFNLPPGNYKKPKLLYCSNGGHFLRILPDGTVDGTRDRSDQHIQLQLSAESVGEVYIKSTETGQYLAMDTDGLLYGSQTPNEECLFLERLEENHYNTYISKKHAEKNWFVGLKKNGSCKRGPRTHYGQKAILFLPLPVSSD
measured-endpoint: Kd (µM)
Record the value in µM, omitting the unit from your answer.

Return value of Kd for input "O=C(Nc1ccc(C(=O)Nc2cccc3cc(S(=O)(=O)O)ccc23)cc1)Nc1ccc(C(=O)Nc2cccc3cc(S(=O)(=O)O)ccc23)cc1" , no commentary. 13.7

----------
- experiment: WST-1 assay, cytotoxicity in tumorigenic cells
- Assay type: cell-based, human
- stated-conditions: human; MCF-7 cells, 48 h, SigmaPlot; read-out: estimated IC50 (cytotoxicity)
IC50 at 48 h values by entry

Example results:
>>> data_value("O=C(Nc1ccc(C(=O)Nc2cc(S(=O)(=O)[O-])cc3cc(S(=O)(=O)[O-])cc(S(=O)(=O)[O-])c23)cc1)Nc1ccc(C(=O)Nc2cc(S(=O)(=O)[O-])cc3cc(S(=O)(=O)[O-])cc(S(=O)(=O)[O-])c23)cc1.[Na+].[Na+].[Na+].[Na+].[Na+].[Na+]")
"> 100 µM"
>>> data_value("O=C(Nc1ccc(C(=O)Nc2cccc3cc(S(=O)(=O)O)ccc23)cc1)Nc1ccc(C(=O)Nc2cccc3cc(S(=O)(=O)O)ccc23)cc1")
"> 100 µM"

Answer with the recorded IC50 at 48 h for the compound listed here: "Cc1ccc(C(=O)Nc2ccc(S(=O)(=O)O)c3cc(S(=O)(=O)O)cc(S(=O)(=O)O)c23)cc1NC(=O)c1cccc(NC(=O)Nc2cccc(C(=O)Nc3cc(C(=O)Nc4ccc(S(=O)(=O)O)c5cc(S(=O)(=O)O)cc(S(=O)(=O)O)c45)ccc3C)c2)c1" > 100 µM

Give recorded IC50 at 48 h. "O=C(Nc1ccc(C(=O)Nc2cc(S(=O)(=O)O)cc3cc(S(=O)(=O)O)cc(S(=O)(=O)O)c23)s1)Nc1ccc(C(=O)Nc2cc(S(=O)(=O)O)cc3cc(S(=O)(=O)O)cc(S(=O)(=O)O)c23)s1" > 100 µM

Specify measured IC50 at 48 h for "O=C(Nc1ccc(C(=O)Nc2ccc(C(=O)Nc3cccc4cc(S(=O)(=O)O)ccc34)cc2)cc1)Nc1ccc(C(=O)Nc2ccc(C(=O)Nc3cccc4cc(S(=O)(=O)O)ccc34)cc2)cc1" . > 100 µM

Name the recorded IC50 at 48 h of the compound listed here: "O=C(Nc1ccc(C(=O)Nc2ccc(C(=O)Nc3cc(S(=O)(=O)O)cc4cc(S(=O)(=O)O)cc(S(=O)(=O)O)c34)cc2)cc1)Nc1ccc(C(=O)Nc2ccc(C(=O)Nc3cc(S(=O)(=O)O)cc4cc(S(=O)(=O)O)cc(S(=O)(=O)O)c34)cc2)cc1" > 100 µM

----------
- Tested on: MCF-7 cells
- experiment: WST-1 assay, cytotoxicity in tumorigenic cells
- Assay type: cell-based, human
- stated-conditions: 50 uM, S8
Mean (Blank 450) listing for selected compounds.
Respond with the number and no other words.

>>> data_value("Cc1ccc(C(=O)Nc2ccc(S(=O)(=O)O)c3cc(S(=O)(=O)O)cc(S(=O)(=O)O)c23)cc1NC(=O)c1cccc(NC(=O)Nc2cccc(C(=O)Nc3cc(C(=O)Nc4ccc(S(=O)(=O)O)c5cc(S(=O)(=O)O)cc(S(=O)(=O)O)c45)ccc3C)c2)c1 [suramin]")
1.004

State its Mean (Blank 450): O=C(Nc1ccc(C(=O)Nc2ccc(C(=O)Nc3cc(S(=O)(=O)O)cc4cc(S(=O)(=O)O)cc(S(=O)(=O)O)c34)cc2)cc1)Nc1ccc(C(=O)Nc2ccc(C(=O)Nc3cc(S(=O)(=O)O)cc4cc(S(=O)(=O)O)cc(S(=O)(=O)O)c34)cc2)cc1 [Compound 18] 1.139

For the compound O=C(Nc1ccc(C(=O)Nc2cc(S(=O)(=O)[O-])cc3cc(S(=O)(=O)[O-])cc(S(=O)(=O)[O-])c23)cc1)Nc1ccc(C(=O)Nc2cc(S(=O)(=O)[O-])cc3cc(S(=O)(=O)[O-])cc(S(=O)(=O)[O-])c23)cc1.[Na+].[Na+].[Na+].[Na+].[Na+].[Na+] [Compound 15] , give its reported Mean (Blank 450). 0.982

For the compound O=C(Nc1ccc(C(=O)Nc2cc(S(=O)(=O)O)cc3cc(S(=O)(=O)O)cc(S(=O)(=O)O)c23)s1)Nc1ccc(C(=O)Nc2cc(S(=O)(=O)O)cc3cc(S(=O)(=O)O)cc(S(=O)(=O)O)c23)s1 [Compound 21] , give its reported Mean (Blank 450). 1.124
